# STUDY_SYSTEM: T1, ZFP SBS#386 (synthetic, UniProt P08047)
# T1 chain: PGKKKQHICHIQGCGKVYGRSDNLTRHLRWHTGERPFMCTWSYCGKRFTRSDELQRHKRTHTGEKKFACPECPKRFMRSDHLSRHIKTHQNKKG
# ASSAY_PROCEDURE: EMSA
# CONDITION_CONTEXT: tags: MBP fusion

{"BINDER": "GGGGCGGAGC (dsDNA) DNA 1: GGGGCGGAGC DNA 2: GCTCCGCCCC", "Kd, pM": 400}
